What pIC50 was measured for each of the following?
# System: Caco-2
# Protocol text: Anticancer activity against human Caco2 cells assessed as inhibition of cell proliferation
# Type: functional, cell-based
Answers are plain numbers, as −log10 of the molar value.

O=c1cc(-c2ccccc2)oc2ccc(NS(=O)(=O)c3ccc([N+](=O)[O-])c(C(F)(F)F)c3)cc12 :: 4.33
O=c1cc(-c2ccccc2)oc2ccc(NS(=O)(=O)c3cccc(C(F)(F)F)c3)cc12 :: 4.29
O=c1cc(-c2ccccc2)oc2cc(NS(=O)(=O)c3ccccc3)ccc12 :: 4.92
Cc1cc(C)c(S(=O)(=O)Nc2ccc3c(=O)cc(-c4ccccc4)oc3c2)c(C)c1 :: 6.15
COc1ccc(S(=O)(=O)Nc2ccc3c(=O)cc(-c4ccccc4)oc3c2)cc1OC :: 6.06

Can you give me pIC50 for all of these, one by one?
1. O=c1cc(-c2ccccc2)oc2cc(NS(=O)(=O)c3cc(C(F)(F)F)ccc3C(F)(F)F)ccc12
2. Cc1ccc(S(=O)(=O)Nc2ccc3c(=O)cc(-c4ccccc4)oc3c2)cc1
3. O=c1cc(-c2ccccc2)oc2cc(NS(=O)(=O)c3cccc(C(F)(F)F)c3)ccc12
4. Cc1ccc(S(=O)(=O)Nc2ccc3oc(-c4ccccc4)cc(=O)c3c2)cc1
5. O=c1cc(-c2ccccc2)oc2cc(NS(=O)(=O)c3ccc([N+](=O)[O-])c(C(F)(F)F)c3)ccc12
6. COc1ccc(S(=O)(=O)Nc2ccc3oc(-c4ccccc4)cc(=O)c3c2)cc1OC

1: 5.61; 2: 4.97; 3: 5.49; 4: 4.26; 5: 5.51; 6: 4.50
